- experimental_target: Peptide 1: Biotin-…-[Tyr(PC)]-acid
- Sequence (peptide, as listed by the source): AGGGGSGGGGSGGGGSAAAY
- method_summary: scFv ELISA
Please provide measured OD450 for the entries that follow.
Answers are plain numbers, in OD450.

# binder, observed_measurement
data = [
    ("PcOxP_DB02_C06 (scFv, V domains shown, scFv in periplasmic extract) VH: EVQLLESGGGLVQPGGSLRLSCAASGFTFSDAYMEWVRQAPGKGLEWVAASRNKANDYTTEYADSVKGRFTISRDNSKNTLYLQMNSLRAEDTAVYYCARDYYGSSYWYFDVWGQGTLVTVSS VL: DIQMTQSPSSLSASVGDRVTITCTASEWLYSSKHKVHYLAWYQQKPGKAPKLLIYGASNRNIGVPSRFSGSGSGTDFTLTISSLQPEDFATYYCAQFYYYPLTFGGGTKVEIK", 0.54),
]

Then there is this binder:
Prompt line: Give the measured OD450 for PcOxP_DB02_C08 (scFv, V domains shown, scFv in periplasmic extract) VH: EVQLLESGGGLVQPGGSLRLSCAASGFTFSDPYMEWVRQAPGKGLEWVAASRNKANDYTTEYADSVKGRFTISRDNSKNTLYLQMNSLRAEDTAVYYCARDYYGSPYWYFDVWGQGTLVTVSS VL: DIVMTQSPDSLAVSLGERATINCGASESLYSSKSKVHYLAWYQQKPGQPPKLLIYGASNRYIGVPDRFSGSGSGTDFTLTISSLQAEDVAVYYCAQFYSYPLTFGGGTKVEIK
Response line: 0.22

Sourced from patent US20250320312A1
